Target: T1, human C5a receptor (C5aR) on intact human polymorphonuclear leukocytes (PMNs) (human, UniProt P21730 1-350)
T1 construct: whole, on cells; Native receptor on fresh human PMNs; not a recombinant construct; also called PMN C5aR
T1 sequence (looked up): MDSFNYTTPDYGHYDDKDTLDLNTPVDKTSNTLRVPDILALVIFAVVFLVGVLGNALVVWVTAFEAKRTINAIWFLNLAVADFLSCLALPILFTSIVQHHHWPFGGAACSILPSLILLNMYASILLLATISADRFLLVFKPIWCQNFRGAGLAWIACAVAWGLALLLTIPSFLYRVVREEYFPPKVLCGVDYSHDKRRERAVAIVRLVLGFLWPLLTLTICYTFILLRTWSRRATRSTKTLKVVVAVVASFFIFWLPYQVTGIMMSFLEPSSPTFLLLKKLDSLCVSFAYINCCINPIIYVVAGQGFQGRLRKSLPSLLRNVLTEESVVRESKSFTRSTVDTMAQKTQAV
Assay: competition with 125I-C5a for binding to intact human PMNs, 4 °C
Where no end group is shown, it is not given here. [ ]: non-standard residue; d: D form. NMeF = CN[C@@H](Cc1ccccc1)C(=O)O; dCha = N[C@H](CC1CCCCC1)C(=O)O
observation type: IC50 (µM)
Use µM as the unit, but write only the number.

Query [NMeF]KPLWR (Linear; dCha replaced by Leu; also called 10; ID NO:10) [MeFKPLWR] yields IC50 of 144

Looking up [NMeF]KP[dCha]WR (Linear; 7 with the chirality of Arg changed; also called ID NO:9) [MeFKP(dCha)WR] , I found its IC50 recorded as 11

For reference, reported IC50 for [NMeF]KP[dCha]W[dR]-NH2 (Linear; C-terminal amide of 7; also called ID NO:8) [MeFKP(dCha)Wr-CONH2] stands at 14

Each recorded value in this set is attributed to patent US20090203760A1.
